STUDY SYSTEM: hepatic lipase (HL) (Homo sapiens (Human), UniProt P11150)
Sequence (P11150 23-499, species assumed): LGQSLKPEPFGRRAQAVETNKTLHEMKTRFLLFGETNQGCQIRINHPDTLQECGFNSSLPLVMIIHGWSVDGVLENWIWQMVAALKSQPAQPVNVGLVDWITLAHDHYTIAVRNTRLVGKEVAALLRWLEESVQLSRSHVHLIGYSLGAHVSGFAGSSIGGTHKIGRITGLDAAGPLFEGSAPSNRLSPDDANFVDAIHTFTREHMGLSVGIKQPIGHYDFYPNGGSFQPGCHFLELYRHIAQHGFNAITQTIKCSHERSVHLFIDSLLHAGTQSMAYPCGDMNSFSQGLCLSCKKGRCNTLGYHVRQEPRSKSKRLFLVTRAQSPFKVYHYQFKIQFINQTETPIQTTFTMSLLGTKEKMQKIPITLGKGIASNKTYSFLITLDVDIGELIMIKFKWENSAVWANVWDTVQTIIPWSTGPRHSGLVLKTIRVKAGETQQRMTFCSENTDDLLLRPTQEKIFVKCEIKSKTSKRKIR
ASSAY OVERVIEW: HL assay: hepatic lipase activity with fluorescent substrate A10070 in DMPG vesicles
Format: biochemical

{"columns": ["COMPOUND", "QUALIFIER", "IC50 (nM)"],
 "data": [
  ["Cn1nccc1-c1ccc2nc(C(C(=O)NCCS(N)(=O)=O)S(C)(=O)=O)sc2c1 (centres unmarked)", "=", 3050],
  ["CS(=O)(=O)C(C(=O)NCCS(N)(=O)=O)c1nc2ccc(-c3ccc(C(=O)N4CC[C@H](O)C4)cc3)cc2s1 (some centres unmarked)", "=", 2620],
  ["COCCS(=O)(=O)C(C(=O)NCc1cc(C(C)C)no1)c1nc2ccc(-c3ccccc3)cc2s1 (centres unmarked)", "=", 0.8],
  ["CC1(O)CN(C(=O)c2ccc(-c3ccc4nc(C(C(=O)NCCS(N)(=O)=O)S(=O)(=O)Cc5ccc(C(F)(F)F)cc5)sc4c3)cc2)C1 (centres unmarked)", "=", 37.4],
  ["COCc1ccc(-c2ccc3nc(C(C(=O)NCCS(N)(=O)=O)S(=O)(=O)CC4CC4)sc3c2)cc1 (centres unmarked)", "=", 55.5],
  ["CS(=O)(=O)C(C(=O)NCCS(N)(=O)=O)c1nc2ccc(-c3ccc(C(=O)NCCO)cc3)cc2s1 (centres unmarked)", "=", 19],
  ["COCCS(=O)(=O)C(C(=O)NCCS(N)(=O)=O)c1nc2ccc(-c3ccnc(OC)c3)cc2s1 (centres unmarked)", "=", 13],
  ["CC(C)CS(=O)(=O)C(C(=O)NCCS(N)(=O)=O)c1nc2ccc(-c3ccccc3)cc2s1 (centres unmarked)", "<", 10],
  ["COc1cc(-c2ccc3nc(C(C(=O)NCCS(N)(=O)=O)S(=O)(=O)CCC(F)(F)F)sc3c2)ccn1 (centres unmarked)", "=", 33],
  ["COCCNC(=O)c1ccc(-c2ccc3nc(C(C(=O)NCCS(N)(=O)=O)S(=O)(=O)CCC(F)(F)F)sc3c2)cc1 (centres unmarked)", "=", 180],
  ["NS(=O)(=O)CCNC(=O)C(c1nc2ccc(Br)cc2s1)S(=O)(=O)CCC(F)(F)F (centres unmarked)", "=", 300],
  ["CS(=O)(=O)C(C(=O)NCCS(N)(=O)=O)c1nc2ccc(-c3ccc(C#N)cc3)cc2s1 (centres unmarked)", "=", 14],
  ["NS(=O)(=O)CCNC(=O)C(c1nc2ccc(-c3ccc(F)nc3)cc2s1)S(=O)(=O)CCN1CCOCC1 (centres unmarked)", "=", 106],
  ["Cc1nnc(CNC(=O)C(c2nc3cc(F)c(-c4ccccc4)cc3s2)S(=O)(=O)CCC(F)(F)F)o1 (centres unmarked)", "=", 84],
  ["CN(C)C(=O)c1ccc(-c2ccc3nc(C(C(=O)NCCS(N)(=O)=O)S(=O)(=O)Cc4ccc(OC(F)(F)F)cc4)sc3c2)cc1F (centres unmarked)", "=", 242],
  ["COCc1ccc(-c2ccc3nc(C(C(=O)NCCS(N)(=O)=O)S(=O)(=O)CCC(F)(F)F)sc3c2)cc1 (centres unmarked)", "=", 7.3],
  ["Cc1nnc(CNC(=O)C(c2nc3cc(C)c(-c4ccccc4)cc3s2)S(C)(=O)=O)o1 (centres unmarked)", "=", 177],
  ["CS(=O)(=O)C(C(=O)NCCS(N)(=O)=O)c1nc2ccc(-c3ccc4c(c3)NC(=O)C4)cc2s1 (centres unmarked)", "=", 139],
  ["CS(=O)(=O)C(C(=O)NCCS(N)(=O)=O)c1nc2cc(-c3ccnc(F)c3)ccc2s1 (centres unmarked) [Example B95]", "=", 70],
  ["CC(=O)Nc1cccc(-c2ccc3sc(C(C(=O)NCCS(N)(=O)=O)S(C)(=O)=O)nc3c2)c1 (centres unmarked)", "=", 83.7],
  ["Cn1ccc(-c2ccc3nc(C(C(=O)NCCS(N)(=O)=O)S(=O)(=O)CCC(F)(F)F)sc3c2)cc1=O (centres unmarked)", "=", 362],
  ["Cc1cc2nc(C(C(=O)NCCS(N)(=O)=O)S(=O)(=O)C(C)C)sc2cc1-c1ccc(F)nc1 (centres unmarked)", "=", 411],
  ["CCS(=O)(=O)C(C(=O)NCCS(N)(=O)=O)c1nc2ccc(-c3ccccc3)cc2s1 (centres unmarked)", "<", 10],
  ["CS(=O)(=O)C(C(=O)NCCS(N)(=O)=O)c1nc2ccc(-c3cc(F)cc(Cl)c3)cc2s1 (centres unmarked)", "=", 13.9],
  ["NS(=O)(=O)CCNC(=O)C(c1nc2ccc(-c3cnn(CCN4CCOCC4)c3)cc2s1)S(=O)(=O)Cc1ccccc1 (centres unmarked)", "=", 631],
  ["COCCS(=O)(=O)C(C(=O)NCCS(N)(=O)=O)c1nc2ccc(-c3ccnc(O)c3)cc2s1 (centres unmarked)", "=", 272],
  ["NS(=O)(=O)CCNC(=O)C(c1nc2cc(-c3ccc(F)nc3)ccc2s1)S(=O)(=O)Cc1ccc(F)cc1 (centres unmarked)", "=", 51.4],
  ["N#Cc1cccc(CS(=O)(=O)C(C(=O)NCCS(N)(=O)=O)c2nc3ccc(-c4ccccc4)cc3s2)c1 (centres unmarked)", "=", 15],
  ["NS(=O)(=O)CCNC(=O)C(c1nc2ccc(-c3ccc(C(=O)NCC(F)(F)F)cc3)cc2s1)S(=O)(=O)CCC(F)(F)F (centres unmarked)", "=", 38]
]}
